Provide the reported TGI of each item.
Tested on: HOP-92 NSCLC
Assay: NCI tumour cell line growth inhibition, 48 h
Where a SMILES comes first, the peptide text is derived from it. The star is where a group is joined. Cbz = O=C(OCc1ccccc1)*; NHNH2 = NN*

Some compounds with recorded TGI:
CCC[CH2][Sn]([CH2]CCC)([O]C(=O)c1cccnc1SC)[O]C(=O)c1cccnc1SC: 1.93 µM
Nc1c(C(=O)c2ccc(Cl)cc2)[nH]c(NCc2ccccc2)c1C(=S)Nc1ccccc1: 9.02 µM
CC1S/C(=N/c2nnc(-c3ccccc3)o2)NC1=O (stereo not drawn): > 100 µM
O=[N+]([O-])c1ccc(-c2ccc(-c3csc(Nc4ccccn4)n3)o2)cc1: > 100 µM
CNC(=O)N(CCC#N)[C@H]1CCCC[C@@H]1N(C(=O)NC)c1ccccc1: > 100 µM
O=C1CCC(=O)N2CCCCN12: > 100 µM

For each of the compounds below, state TGI.
1. COC(=O)CC(NC(=O)OCc1ccccc1)C(=O)NC(CC(=O)OC)C(=O)NC(CC(=O)OC)C(=O)NC(CC(=O)OC)C(=O)NC(CC(=O)OC)C(=O)NC(CC(=O)OC)C(=O)NN (stereo not drawn) (Cbz-D(OMe)D(OMe)D(OMe)D(OMe)D(OMe)D(OMe)-NHNH2; configuration not given here)
2. Cc1cn([C@@H]2C[C@H]2CO)c(=O)[nH]c1=O

["> 100 µM", "> 100 µM"]

Where do these numbers come from? They come from PubChem BioAssay (NCI).
